assay: Metabolic stability assay (liver microsomes); type: in vitro ADME; conditions: dog liver microsomes, 45 min, mean
Below, each entry is listed with its recorded Percent Remaining (%) 45 min.
Note: unit % is implicit; provide only the numeric part.

- CN(c1ncnc2[nH]ccc12)[C@H]1CC[C@H](NC(=O)NCC(F)(F)F)CC1 [Compound 6]: 71.95
- CNS(=O)(=O)C[C@H]1CC[C@H](N(C)c2ncnc3[nH]ccc23)CC1 [Oclacitinib, reference compound]: 62.97
- CN(c1ncnc2[nH]ccc12)[C@H]1CC[C@H](NC(=O)NCC#N)CC1 [Compound 5]: 86.91
- CCCNC(=O)N[C@H]1CC[C@@H](N(C)c2ncnc3[nH]ccc23)CC1 [Compound 3]: 73.67

Could you now consider this next compound?
Exercise: // Percent Remaining (%) 45 min lookup, key: O=C(c1ccc(F)cc1)C1CCN(CCn2c(=O)[nH]c3ccccc3c2=O)CC1 [ketanserin, reference compound]
Solution: 36.16

* * *

Experiment: Metabolic stability assay (liver microsomes)
Assay type: in vitro ADME
Details: dog liver microsomes, 5 min, mean
Experimental: Stock solutions of the sample and reference compounds were prepared in DMSO (10 mM). A spiking solution (500 μM) was prepared for each sample compound and reference compound by diluting 10 μL of the stock solution in ACN (190 μL). […]
Below, each entry is listed with its recorded Percent Remaining (%) 5 min.
Note: unit % is implicit; provide only the numeric part.

Known results for molecules:
* CCCNC(=O)N[C@H]1CC[C@@H](N(C)c2ncnc3[nH]ccc23)CC1 | 94.76
* CNS(=O)(=O)C[C@H]1CC[C@H](N(C)c2ncnc3[nH]ccc23)CC1 [Oclacitinib, reference compound] | 94.12
* CN(c1ncnc2[nH]ccc12)[C@H]1CC[C@H](NC(=O)NCC#N)CC1 | 100.66

Exercise: // Percent Remaining (%) 5 min lookup, key: CN(c1ncnc2[nH]ccc12)[C@H]1CC[C@H](NC(=O)NCC(F)(F)F)CC1
Solution: 93.91

Exercise: // Percent Remaining (%) 5 min lookup, key: O=C(c1ccc(F)cc1)C1CCN(CCn2c(=O)[nH]c3ccccc3c2=O)CC1 [ketanserin, reference compound]
Solution: 82.91

* * *

target: JAK1 (Homo sapiens (Human)); experiment: JAK1 enzymatic assay; assay type: biochemical; settings: from enzymatic IC50 values, JAK1 vs JAK3
Sequence (P23458 whole entry): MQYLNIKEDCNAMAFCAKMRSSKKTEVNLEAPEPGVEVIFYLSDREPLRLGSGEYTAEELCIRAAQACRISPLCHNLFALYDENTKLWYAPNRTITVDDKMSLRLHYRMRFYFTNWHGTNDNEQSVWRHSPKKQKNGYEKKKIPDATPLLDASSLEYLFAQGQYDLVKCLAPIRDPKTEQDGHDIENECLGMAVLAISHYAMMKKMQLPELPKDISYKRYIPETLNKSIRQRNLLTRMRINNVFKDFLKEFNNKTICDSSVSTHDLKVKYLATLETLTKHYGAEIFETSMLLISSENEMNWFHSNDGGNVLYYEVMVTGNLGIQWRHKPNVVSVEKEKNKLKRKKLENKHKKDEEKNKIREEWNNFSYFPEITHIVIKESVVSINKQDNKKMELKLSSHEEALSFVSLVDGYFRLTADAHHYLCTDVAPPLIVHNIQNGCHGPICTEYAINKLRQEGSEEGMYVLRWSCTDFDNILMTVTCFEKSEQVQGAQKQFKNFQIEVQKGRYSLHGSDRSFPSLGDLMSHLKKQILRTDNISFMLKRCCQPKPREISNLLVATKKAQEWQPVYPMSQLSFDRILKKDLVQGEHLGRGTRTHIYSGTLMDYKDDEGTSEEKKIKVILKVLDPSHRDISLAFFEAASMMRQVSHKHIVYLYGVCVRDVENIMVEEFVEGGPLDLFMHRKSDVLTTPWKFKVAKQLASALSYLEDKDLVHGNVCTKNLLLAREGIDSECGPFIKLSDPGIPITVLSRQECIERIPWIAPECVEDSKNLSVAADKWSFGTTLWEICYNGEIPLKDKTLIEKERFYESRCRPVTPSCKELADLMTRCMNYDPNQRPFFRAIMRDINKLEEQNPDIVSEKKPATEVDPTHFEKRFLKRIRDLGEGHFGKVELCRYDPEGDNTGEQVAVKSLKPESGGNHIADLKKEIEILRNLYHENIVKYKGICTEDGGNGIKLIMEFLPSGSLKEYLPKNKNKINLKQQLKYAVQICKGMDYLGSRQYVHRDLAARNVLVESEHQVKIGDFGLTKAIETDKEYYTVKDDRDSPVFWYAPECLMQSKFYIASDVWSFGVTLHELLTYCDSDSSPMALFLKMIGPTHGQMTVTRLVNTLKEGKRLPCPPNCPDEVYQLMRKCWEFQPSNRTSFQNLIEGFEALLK
Below, each entry is listed with its recorded selectivity for JAK1 over JAK3.
Don't forget the unit after the number, please.

* CCNC(=O)N[C@H]1CC[C@H](N(C)c2ncnc3[nH]ccc23)CC1 [Compound 2] | 10.4 fold
* CNS(=O)(=O)C[C@H]1CC[C@H](N(C)c2ncnc3[nH]ccc23)CC1 [Oclacitinib, reference compound] | 10.6 fold
* CCCNC(=O)N[C@H]1CC[C@@H](N(C)c2ncnc3[nH]ccc23)CC1 [Compound 3] | 10.9 fold
* CN(c1ncnc2[nH]ccc12)[C@H]1CC[C@H](NC(=O)NCC(F)(F)F)CC1 [Compound 6] | 18.3 fold
* CNC(=O)N[C@H]1CC[C@H](N(C)c2ncnc3[nH]ccc23)CC1 [Compound 1] | 3.96 fold
* CN(c1ncnc2[nH]ccc12)[C@H]1CC[C@H](NC(=O)NCC#N)CC1 [Compound 5] | 3.5 fold

Exercise: // selectivity for JAK1 over JAK3 lookup, key: CC(C)NC(=O)N[C@H]1CC[C@H](N(C)c2ncnc3[nH]ccc23)CC1 [Compound 4]
Solution: 15.4 fold

* * *

Assay: Metabolic stability assay (liver microsomes)
Assay type: in vitro ADME
Conditions: pooled liver microsomes, pH 7.4; dog liver microsomes
Protocol: Stock solutions of the sample and reference compounds were prepared in DMSO (10 mM). A spiking solution (500 μM) was prepared for each sample compound and reference compound by diluting 10 μL of the stock solution in ACN (190 μL). […]
Below, each entry is listed with its recorded half-life at 1 µM.
Note: unit h is implicit; provide only the numeric part.

Known results for molecules:
- O=C(c1ccc(F)cc1)C1CCN(CCn2c(=O)[nH]c3ccccc3c2=O)CC1 [ketanserin, reference compound]: 0.505
- CN(c1ncnc2[nH]ccc12)[C@H]1CC[C@H](NC(=O)NCC#N)CC1: 3.16
- CNS(=O)(=O)C[C@H]1CC[C@H](N(C)c2ncnc3[nH]ccc23)CC1 [Oclacitinib, reference compound]: 1.09
- CCCNC(=O)N[C@H]1CC[C@@H](N(C)c2ncnc3[nH]ccc23)CC1: 1.63

Exercise: // half-life at 1 µM lookup, key: CN(c1ncnc2[nH]ccc12)[C@H]1CC[C@H](NC(=O)NCC(F)(F)F)CC1
Solution: 1.58

* * *

Below, each entry is listed with its recorded Percent Remaining (%) 30 min.
test: Metabolic stability assay (liver microsomes); assay type: in vitro ADME; conditions: dog liver microsomes, 30 min, mean
Note: unit % is implicit; provide only the numeric part.

Known results for molecules:
• CN(c1ncnc2[nH]ccc12)[C@H]1CC[C@H](NC(=O)NCC(F)(F)F)CC1 = 76.25
• CCCNC(=O)N[C@H]1CC[C@@H](N(C)c2ncnc3[nH]ccc23)CC1 = 75.53
• O=C(c1ccc(F)cc1)C1CCN(CCn2c(=O)[nH]c3ccccc3c2=O)CC1 [ketanserin, reference compound] = 42.37
• CNS(=O)(=O)C[C@H]1CC[C@H](N(C)c2ncnc3[nH]ccc23)CC1 [Oclacitinib, reference compound] = 68.65

Exercise: // Percent Remaining (%) 30 min lookup, key: CN(c1ncnc2[nH]ccc12)[C@H]1CC[C@H](NC(=O)NCC#N)CC1
Solution: 87.57

* * *

target: JAK1 (Homo sapiens (Human)); experiment: JAK1 enzymatic assay; format: biochemical; conditions: from enzymatic IC50 values, JAK1 vs JAK2
Assign YES to entries whose selectivity for JAK1 over JAK2 meets or exceeds 3 fold; assign NO to the rest.

Observe how each entry below is paired with its result.
• CN(c1ncnc2[nH]ccc12)[C@H]1CC[C@H](NC(=O)NCC(F)(F)F)CC1 = YES
• CN(c1ncnc2[nH]ccc12)[C@H]1CC[C@H](NC(=O)NCC#N)CC1 = NO
• CCNC(=O)N[C@H]1CC[C@H](N(C)c2ncnc3[nH]ccc23)CC1 = NO
• CC(C)NC(=O)N[C@H]1CC[C@H](N(C)c2ncnc3[nH]ccc23)CC1 = YES

Shifting focus to the molecule that follows.
Exercise: API: above_or_equal(metric=selectivity for JAK1 over JAK2, cutoff=3 fold) for item CCCNC(=O)N[C@H]1CC[C@@H](N(C)c2ncnc3[nH]ccc23)CC1
Solution: YES

* * *

target: JAK3 (Homo sapiens (Human))
Sequence (P52333 whole entry): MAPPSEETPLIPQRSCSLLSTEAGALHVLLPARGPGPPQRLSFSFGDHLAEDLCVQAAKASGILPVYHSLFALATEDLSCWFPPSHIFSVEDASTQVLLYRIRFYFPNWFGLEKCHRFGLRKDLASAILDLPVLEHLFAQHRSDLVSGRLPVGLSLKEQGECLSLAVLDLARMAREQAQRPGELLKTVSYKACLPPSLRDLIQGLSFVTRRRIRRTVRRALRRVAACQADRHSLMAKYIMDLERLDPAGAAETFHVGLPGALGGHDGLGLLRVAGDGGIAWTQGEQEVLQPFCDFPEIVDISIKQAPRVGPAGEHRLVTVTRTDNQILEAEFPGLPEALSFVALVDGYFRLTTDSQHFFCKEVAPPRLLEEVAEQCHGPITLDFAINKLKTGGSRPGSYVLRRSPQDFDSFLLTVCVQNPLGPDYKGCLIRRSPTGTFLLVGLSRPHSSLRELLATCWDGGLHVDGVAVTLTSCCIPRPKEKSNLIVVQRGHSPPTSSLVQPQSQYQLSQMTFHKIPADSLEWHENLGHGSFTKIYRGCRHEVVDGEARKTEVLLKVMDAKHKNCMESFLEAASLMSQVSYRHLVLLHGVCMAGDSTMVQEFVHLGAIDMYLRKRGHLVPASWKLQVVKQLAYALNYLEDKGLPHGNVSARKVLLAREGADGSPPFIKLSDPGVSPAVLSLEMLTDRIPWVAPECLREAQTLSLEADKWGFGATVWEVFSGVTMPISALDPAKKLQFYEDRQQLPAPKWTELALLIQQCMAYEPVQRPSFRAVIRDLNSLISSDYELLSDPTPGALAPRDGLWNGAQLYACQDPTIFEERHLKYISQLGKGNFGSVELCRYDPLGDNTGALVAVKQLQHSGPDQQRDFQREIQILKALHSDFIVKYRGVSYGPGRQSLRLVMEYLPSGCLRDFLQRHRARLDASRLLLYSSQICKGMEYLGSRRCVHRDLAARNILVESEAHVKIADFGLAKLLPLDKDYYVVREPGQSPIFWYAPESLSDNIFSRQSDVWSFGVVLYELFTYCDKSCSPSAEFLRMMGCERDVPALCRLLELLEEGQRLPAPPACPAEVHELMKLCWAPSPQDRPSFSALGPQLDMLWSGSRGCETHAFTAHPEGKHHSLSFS
Below, each entry is listed with its recorded pIC50.
A value of pIC50 is the negative decimal logarithm of a concentration given in moles per litre.

Known results for compounds:
- CNC(=O)N[C@H]1CC[C@H](N(C)c2ncnc3[nH]ccc23)CC1: 6.21
- CCCNC(=O)N[C@H]1CC[C@@H](N(C)c2ncnc3[nH]ccc23)CC1: 6.68
- CNS(=O)(=O)C[C@H]1CC[C@H](N(C)c2ncnc3[nH]ccc23)CC1 [Oclacitinib, reference compound]: 7.15

Could you now consider this next compound?
Exercise: Find pIC50 (JAK3 (Homo sapiens (Human))) for the entry CC(C)NC(=O)N[C@H]1CC[C@H](N(C)c2ncnc3[nH]ccc23)CC1
Solution: 6.21

* * *

target: UniProt:P29597
Sequence (P29597 whole entry): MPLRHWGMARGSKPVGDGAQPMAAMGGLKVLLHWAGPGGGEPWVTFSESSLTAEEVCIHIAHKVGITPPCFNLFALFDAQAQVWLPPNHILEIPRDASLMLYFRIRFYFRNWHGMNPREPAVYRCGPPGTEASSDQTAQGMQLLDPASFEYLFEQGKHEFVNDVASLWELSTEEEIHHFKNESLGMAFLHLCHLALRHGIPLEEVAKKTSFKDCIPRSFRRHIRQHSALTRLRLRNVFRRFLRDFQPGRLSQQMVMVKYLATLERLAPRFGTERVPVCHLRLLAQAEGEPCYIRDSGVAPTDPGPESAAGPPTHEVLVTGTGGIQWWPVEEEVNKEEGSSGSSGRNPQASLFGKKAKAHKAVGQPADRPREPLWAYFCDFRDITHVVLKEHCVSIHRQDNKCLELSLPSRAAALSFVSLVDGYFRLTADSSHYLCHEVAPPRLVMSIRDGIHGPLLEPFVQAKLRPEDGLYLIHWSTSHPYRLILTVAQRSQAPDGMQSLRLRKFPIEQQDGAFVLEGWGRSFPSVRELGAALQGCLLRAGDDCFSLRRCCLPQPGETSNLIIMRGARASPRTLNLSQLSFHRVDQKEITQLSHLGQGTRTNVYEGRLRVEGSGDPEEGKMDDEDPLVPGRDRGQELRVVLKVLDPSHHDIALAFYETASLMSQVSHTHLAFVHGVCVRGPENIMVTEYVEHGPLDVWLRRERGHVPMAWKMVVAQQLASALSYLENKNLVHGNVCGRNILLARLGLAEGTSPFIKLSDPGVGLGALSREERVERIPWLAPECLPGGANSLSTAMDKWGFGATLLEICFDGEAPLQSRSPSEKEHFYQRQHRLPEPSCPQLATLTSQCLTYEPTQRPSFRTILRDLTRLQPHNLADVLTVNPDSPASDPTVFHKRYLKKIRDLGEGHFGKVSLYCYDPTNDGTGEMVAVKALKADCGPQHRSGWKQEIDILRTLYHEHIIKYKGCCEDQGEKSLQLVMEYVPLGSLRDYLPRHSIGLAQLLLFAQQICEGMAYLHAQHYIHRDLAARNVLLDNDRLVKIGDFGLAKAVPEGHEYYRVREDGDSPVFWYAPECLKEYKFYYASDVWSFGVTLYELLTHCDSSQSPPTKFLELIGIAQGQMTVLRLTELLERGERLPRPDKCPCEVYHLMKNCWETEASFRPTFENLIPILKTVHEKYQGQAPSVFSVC
outcome-measure: pIC50
A value of pIC50 is the negative decimal logarithm of a concentration given in moles per litre.

Known results for molecules:
• CCNC(=O)N[C@H]1CC[C@H](N(C)c2ncnc3[nH]ccc23)CC1 [Compound 2] = 5.75
• CNS(=O)(=O)C[C@H]1CC[C@H](N(C)c2ncnc3[nH]ccc23)CC1 [Oclacitinib, reference compound] = 7.11
• CCCNC(=O)N[C@H]1CC[C@@H](N(C)c2ncnc3[nH]ccc23)CC1 [Compound 3] = 5.82

Could you now consider this next molecule?
Exercise: Find pIC50 (UniProt:P29597) for the entry CN(c1ncnc2[nH]ccc12)[C@H]1CC[C@H](NC(=O)NCC(F)(F)F)CC1 [Compound 6]
Solution: 6.47

* * *

The following are reported pIC50 results, target or system JAK1 (Homo sapiens (Human), UniProt P23458).
A value of pIC50 is the negative decimal logarithm of a concentration given in moles per litre.

- CNS(=O)(=O)C[C@H]1CC[C@H](N(C)c2ncnc3[nH]ccc23)CC1 [Oclacitinib, reference compound]: 8.18

Exercise: Find pIC50 (JAK1 (Homo sapiens (Human), UniProt P23458)) for the entry CNC(=O)N[C@H]1CC[C@H](N(C)c2ncnc3[nH]ccc23)CC1 [Compound 1]
Solution: 6.81

* * *

test: Metabolic stability assay (liver microsomes); assay type: in vitro ADME; settings: pooled liver microsomes, pH 7.4; dog liver microsomes
I'd appreciate it if you marked entries met when CLint scaled at 1 µM is lower than 40 mL/min/kg and not met when it is not.

- CCCNC(=O)N[C@H]1CC[C@@H](N(C)c2ncnc3[nH]ccc23)CC1: met

Exercise: Dear colleague, could you confirm whether CLint scaled at 1 µM of CNS(=O)(=O)C[C@H]1CC[C@H](N(C)c2ncnc3[nH]ccc23)CC1 [Oclacitinib, reference compound] falls below 40 mL/min/kg? Thanks.
Solution: not met

Exercise: Dear colleague, could you confirm whether CLint scaled at 1 µM of O=C(c1ccc(F)cc1)C1CCN(CCn2c(=O)[nH]c3ccccc3c2=O)CC1 [ketanserin, reference compound] falls below 40 mL/min/kg? Thanks.
Solution: not met

Exercise: Dear colleague, could you confirm whether CLint scaled at 1 µM of CN(c1ncnc2[nH]ccc12)[C@H]1CC[C@H](NC(=O)NCC#N)CC1 falls below 40 mL/min/kg? Thanks.
Solution: met

Exercise: Dear colleague, could you confirm whether CLint scaled at 1 µM of CN(c1ncnc2[nH]ccc12)[C@H]1CC[C@H](NC(=O)NCC(F)(F)F)CC1 falls below 40 mL/min/kg? Thanks.
Solution: met

All values here come from patent US12492204B2.
